Read-out: Monocyte Chemoattractant Protein-1 (MCP1), CCL2 (gene 6347)
Assay: BSK_4H_MCP1: BioMAP Diversity Plus: 4H Assay for Monocyte Chemoattractant Protein-1 (MCP1) Biomarker Activity (AID 2283018)
Details: primary human endothelial cells (HUVEC); actives raise or lower the signal
Activity calls are given as the source filed them. Rule for the calls: active = hit-call score of the fitted dose curve at least 0.9, where 1 is the maximum; inactive = score below 0.9.
Classes used: active, inactive

• CCC(C)(C)c1ccc(O)cc1 = inactive
• CC(C)(C)c1ccccc1OP(=O)(Oc1ccccc1)Oc1ccccc1 = active
• ClC(Cl)(Cl)c1ccccc1 = inactive
• O=[N+]([O-])c1ccc(Cl)c(Cl)c1 = inactive
• ClC(Cl)c1ccccc1 = inactive
• NC(=O)C(F)(F)C(F)(F)F = inactive
• c1ccc2c(c1)sc1ccccc12 = inactive
• c1ccc(OP(Oc2ccccc2)Oc2ccccc2)cc1 = inactive

###

Assay: Tanguay_ZF_120hpf_AXIS_legacy: (Legacy) Oregon State University Tanguay Lab 120 Hour Post-fertilization zebrafish Assay for Body Axis Malformation (AID 2283635)
Records with an inconclusive call do not appear. Activity calls are given as the source filed them. The calls were made as follows: active = hit-call score of the fitted dose curve at least 0.9, where 1 is the maximum; inconclusive = response in the unintended direction; inactive = score below 0.9.
Classes used: active, inactive

• CCOS(=O)(=O)OCC = inactive
• Cc1ccc(O)cc1C = inactive
• CCOP(=S)(Oc1ccc([N+](=O)[O-])cc1)c1ccccc1 (stereo not given) = inactive
• CC(C)(C)OOC(C)(C)C = inactive
• CCCCN(CCCC)N=O = inactive
• OCC1CO1 (stereo not given) = inactive
• CC(Cl)(Cl)C(=O)O = inactive
• ClC(Cl)c1ccccc1 = inactive
• CCOP(=S)(OCC)SCSCC = inactive
• O=[N+]([O-])c1ccccc1 = inactive
• Nc1ccc2ccccc2c1 = active
• CC(C)(C)c1ccc(O)cc1 = inactive
• O=P1(N(CCCl)CCCl)NCCCO1 (stereo not given) = inactive
• CCOC(=O)c1ccccc1C(=O)OCC = inactive
• O=P(Oc1ccccc1)(Oc1ccccc1)Oc1ccccc1 = inactive

###

Read-out: Urokinase-type plasminogen activator receptor (uPAR), PLAUR (gene 5329)
Experiment: BSK_4H_uPAR: BioMAP Diversity Plus: 4H Assay for Urokinase-type plasminogen activator receptor (uPAR) Biomarker Activity (AID 2283030)
Conditions: primary human endothelial cells (HUVEC); actives raise or lower the signal
Experimental: BSK_4H is a cell-based, multiplexed-readout assay that uses umbilical vein endothelium, a human vascular primary cell, with measurements taken at 24 hours after chemical dosing in a 96-well plate.BSK_4HAR is an assay component measured in the BSK_4H assay. It measures uPAR antibody related to regulation of gene expression using ELISA technology.Data from the assay component BSK_4HAR was analyzed into 1 assay endpoint. […]
Activity calls are given as the source filed them. The calls were made as follows: active = hit-call score of the fitted dose curve at least 0.9, where 1 is the maximum; inactive = score below 0.9.
property-name: AC50

* O=C(O)C(Cl)Cl | inactive
* O=C(O)C(F)(OC(F)(F)C(F)(F)C(F)(F)F)C(F)(F)F (stereo not given) | inactive
* ClC(Cl)c1ccccc1 | inactive
* CSC(C)(C)C=NO | inactive
* CC(C)(C)c1ccccc1OP(=O)(Oc1ccccc1)Oc1ccccc1 | 34.4 µM (active)
* CCCCC(CC)COP(=O)(Oc1ccccc1)Oc1ccccc1 (stereo not given) | 20 µM (active)
* CC(C)(C)c1ccc(O)cc1 | inactive
* Cc1ccc2c(c1N)C(=O)c1ccccc1C2=O | inactive
* CCOP(=S)(OCC)SCn1nnc2ccccc2c1=O | inactive
* COP(=O)(O)OC | inactive
* O=[N+]([O-])c1ccccc1 | inactive
* CCOP(=S)(OCC)SCSc1ccc(Cl)cc1 | inactive
* Nc1ccc([N+](=O)[O-])cc1Cl | inactive
* CCCCN(CCCC)SN(C)C(=O)Oc1cccc2c1OC(C)(C)C2 | 37.1 µM (active)
* c1ccc(OP(Oc2ccccc2)Oc2ccccc2)cc1 | inactive
* O=C(O)C(F)(F)C(F)(F)C(=O)O | inactive
* Nc1ccc2ccccc2c1 | inactive
* c1ccc2c(c1)sc1ccccc12 | inactive
* O=C(O)C1C(C(=O)O)C2(Cl)C(Cl)=C(Cl)C1(Cl)C2(Cl)Cl (stereo not given) | inactive
* CCOP(=S)(Oc1ccc([N+](=O)[O-])cc1)c1ccccc1 (stereo not given) | inactive
* CC(O)C(F)(F)C(F)(F)F (stereo not given) | inactive
* CCCCOCCOP(=O)(OCCOCCCC)OCCOCCCC | inactive
* CC(C)(C)OOC(C)(C)C | inactive
* CCCCCCCc1ccc(O)cc1 | 38.4 µM (active)
* CC(C)Nc1ccc(Nc2ccccc2)cc1 | 14.4 µM (active)
* O=c1ssc(Cl)c1Cl | 7.3 µM (active)
* O=P(OCC(Br)CBr)(OCC(Br)CBr)OCC(Br)CBr (stereo not given) | inactive
* CCOC(=O)c1ccccc1C(=O)OCC | inactive
* ClC(Cl)(Cl)c1ccccc1 | inactive
* CCOP(=S)(S)OCC | inactive
* OCC1CO1 (stereo not given) | inactive
* NC(=O)C(F)(F)C(F)(F)F | inactive
* C=CC(=O)OCC(F)(F)C(F)F | inactive
* FC(F)(F)C(F)(C(F)(F)F)C(F)(F)C(F)(F)CC1CO1 (stereo not given) | inactive
* [N-]=[N+]=[N-] | inactive
* C=CC(=O)OCC(CC)(COC(=O)C=C)COC(=O)C=C | 4.07 µM (active)
* Cc1ccc(O)cc1C | inactive
* OCC(F)(F)OC(F)(F)C(F)(F)OC(F)(F)CO | inactive
* O=C(O)C=CC(F)(C(F)(F)F)C(F)(F)F | inactive
* O=P(Oc1ccccc1)(Oc1ccccc1)Oc1ccccc1 | 29.9 µM (active)
* CN(C)C(=O)Cl | inactive
* CCCN(CCC)c1c([N+](=O)[O-])cc(C(C)C)cc1[N+](=O)[O-] | inactive
* CC(Cc1ccc(OCC(=O)O)cc1)NCC(O)c1csc(C(F)(F)F)n1 (stereo not given) | inactive
* Nc1cc2c3c(c1)C(c1ccccc1)=N[C@@H](NC(=O)c1cccnc1)C(=O)N3CC2 | inactive
* ClC1=C(Cl)C2(Cl)C3C(Cl)C(Cl)CC3C1(Cl)C2(Cl)Cl (stereo not given) | 38 µM (active)
* COP(=O)(CCC(=O)NCO)OC | inactive
* Cc1ccc(N)cc1N | inactive
* O=S1(=O)OCC2C(CO1)C1(Cl)C(Cl)=C(Cl)C2(Cl)C1(Cl)Cl (stereo not given) | 9.1 µM (active)
* O=P1(N(CCCl)CCCl)NCCCO1 (stereo not given) | inactive
* ClC(Cl)=C(c1ccc(Cl)cc1)c1ccccc1Cl | 11.7 µM (active)

###

Test: CCTE_Mundy_HCI_iCellGluta_NOG_NeuriteCount: CCTE's Neurite Outgrowth Assay in iCellGluta cells for Neurite Count, Mundy Lab (AID 2284342);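 note: chemical exposure about 48 hours starting 2 hours after plating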
Inconclusive results are not listed. Activity calls are given as the source filed them. How the source made its calls: active means hit-call score of the fitted dose curve at least 0.9, where 1 is the maximum; inconclusive means response in the unintended direction; inactive means score below 0.9.
Classes used: Y (active), N (inactive)

• CO/N=C(/C(=O)OC)c1ccccc1COc1ccccc1C = Y
• CCOP(=S)(OCC)SCSCC = N
• OCC(F)(F)OC(F)(F)C(F)(F)OC(F)(F)C(F)(F)OC(F)(F)F = N
• FC(F)(F)C(F)(C(F)(F)F)C(F)(F)C(F)(F)CC1CO1 (stereo unspecified) = N
• O=C(O)C(F)(F)OC(F)(F)C(F)(F)OC(F)(F)C(=O)O = N
• O=C(O)C(F)(F)OC(F)(F)C(F)(F)OC(F)(F)F = N

###

Assay: BSK_LPS_PGE2: BioMAP Diversity Plus: LPS Assay for Prostaglandin E2 (PGE2) Biomarker Activity (AID 2283082)
Conditions: primary human HUVEC with PBMC; actives raise or lower the signal
Calls of active or inactive are those of the source. How the source made its calls: active means hit-call score of the fitted dose curve at least 0.9, where 1 is the maximum; inactive means score below 0.9.
Classes used: label 1 = active, label 0 = inactive

- O=S(=O)(F)C(F)(F)C(F)(F)C(F)(F)C(F)(F)C(F)(F)C(F)(F)C(F)(F)C(F)(F)F: label 0
- CCC1(c2ccccc2)C(=O)N=C(O)NC1=O (configuration not stated): label 0
- c1ccc2c(c1)Nc1ccccc1S2: label 1
- Nc1ccc([N+](=O)[O-])cc1Cl: label 0
- c1nc[nH]n1: label 0
- CCCCC(CC)COP(=O)(Oc1ccccc1)Oc1ccccc1 (configuration not stated): label 0
- O=P(OCC(Br)CBr)(OCC(Br)CBr)OCC(Br)CBr (configuration not stated): label 0
- CSC(C)(C)C=NO: label 0
- CC(Cl)CN(C)C (configuration not stated): label 0
- CCOC(=O)c1ccccc1C(=O)OCC: label 0
- CCCCOCCOP(=O)(OCCOCCCC)OCCOCCCC: label 0
- CN(C)C(=O)Cl: label 0

###

Assay: BSK_3C_SRB: Viability Assessment in the BioMAP Diversity Plus: 3C Assay (AID 2283023);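 note: cells read 24 h after compound dosing; fitted both ways against DMSO so a hit may be signal rise or drop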
Conditions: primary human endothelial cells (HUVEC)
Procedure: BSK_3C is a cell-based, multiplexed-readout assay that uses umbilical vein endothelium, a human vascular primary cell, with measurements taken at 24 hours after chemical dosing in a 96-well plate.BSK_3C_SRB is an assay component measured in the BSK_3C assay. It measures 0.1% sulforhodamine related to cell death using Sulforhodamine staining technology.Data from the assay component BSK_3C_SRB was analyzed into 1 assay endpoint. […]
The source made the active and inactive calls. How the source made its calls: active means hit-call score of the fitted dose curve at least 0.9, where 1 is the maximum; inactive means score below 0.9.
property-name: AC50

- CCCCC(CC)COP(=O)(Oc1ccccc1)Oc1ccccc1 (centres undefined): 9.7 µM (active)
- ClC(Cl)c1ccccc1: inactive
- Cc1ccc([N+](=O)[O-])cc1C: inactive
- CCOP(=S)(S)OCC: inactive
- O=C(O)C(F)(F)C(F)(F)C(=O)O: inactive
- CCNc1nc(Cl)nc(NC(C)(C)C)n1: inactive
- CCOP(=S)(OCC)SCS(=O)(=O)CC: inactive
- c1ccc2c(c1)Nc1ccccc1S2: inactive
- ClC1=C(Cl)C2(Cl)C3C(Cl)C(Cl)CC3C1(Cl)C2(Cl)Cl (centres undefined): 29.8 µM (active)
- CCCCCCCc1ccc(O)cc1: 39.2 µM (active)
- CC(C)Nc1ccc(Nc2ccccc2)cc1: 11 µM (active)
- O=C(O)C(F)(F)OC(F)(F)C(F)(F)OC(F)(F)C(=O)O: inactive
- OCC(F)(F)OC(F)(F)C(F)(F)OC(F)(F)CO: inactive
- C=CC(=O)OCC(CC)(COC(=O)C=C)COC(=O)C=C: 2.33 µM (active)
